Below, each entry is listed alongside its reported glycan array binding signal (z-score).
# EXPERIMENTAL SYSTEM: Gal(b1-2)Gal
# TEST PROTOCOL: glycan array binding signal (z-score within array); higher = stronger binding
# CONDITION DETAILS: glycan notation: IUPAC condensed, linker removed
Only a selection was taken, and the strongest signals are over-represented in it overall.
READOUT KIND: glycan array binding signal (z-score)

>>> recorded_number("HPAIIITrx (Helix pomatia), Q1KM18 (protein) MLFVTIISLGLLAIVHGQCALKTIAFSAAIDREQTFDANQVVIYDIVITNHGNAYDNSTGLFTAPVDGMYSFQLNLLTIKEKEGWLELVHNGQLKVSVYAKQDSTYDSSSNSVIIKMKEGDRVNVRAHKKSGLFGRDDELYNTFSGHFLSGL")
0.163
>>> recorded_number("MRCL (Homo sapiens), NP_872425.1 (protein) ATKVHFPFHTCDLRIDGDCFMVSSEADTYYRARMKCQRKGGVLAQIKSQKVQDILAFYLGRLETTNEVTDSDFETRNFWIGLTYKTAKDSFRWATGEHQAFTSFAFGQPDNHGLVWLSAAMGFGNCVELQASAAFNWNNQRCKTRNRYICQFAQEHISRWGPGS")
-0.726
>>> recorded_number("pTFF2 (Sus scrofa), P01359 (protein) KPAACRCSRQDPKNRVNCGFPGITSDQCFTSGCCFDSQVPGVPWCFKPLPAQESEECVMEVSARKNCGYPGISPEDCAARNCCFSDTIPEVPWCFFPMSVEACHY")
-1.31
>>> recorded_number("DBA (Dolichos biflorus) (protein) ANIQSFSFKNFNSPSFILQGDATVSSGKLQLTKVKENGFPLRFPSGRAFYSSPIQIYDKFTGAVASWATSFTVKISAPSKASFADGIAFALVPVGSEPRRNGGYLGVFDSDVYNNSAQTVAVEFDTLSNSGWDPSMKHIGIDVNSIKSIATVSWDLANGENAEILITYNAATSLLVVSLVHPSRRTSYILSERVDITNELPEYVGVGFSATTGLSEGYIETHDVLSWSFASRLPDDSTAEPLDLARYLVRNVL")
-0.113
>>> recorded_number("XTP3-B-MRH2 (Homo sapiens), Q96DZ1 (protein) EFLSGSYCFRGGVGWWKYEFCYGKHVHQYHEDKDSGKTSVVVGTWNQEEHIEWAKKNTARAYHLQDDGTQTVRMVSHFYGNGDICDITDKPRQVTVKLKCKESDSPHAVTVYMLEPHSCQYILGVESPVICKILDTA")
-0.575
>>> recorded_number("RobpsCRA (Robinia pseudoacacia) (protein) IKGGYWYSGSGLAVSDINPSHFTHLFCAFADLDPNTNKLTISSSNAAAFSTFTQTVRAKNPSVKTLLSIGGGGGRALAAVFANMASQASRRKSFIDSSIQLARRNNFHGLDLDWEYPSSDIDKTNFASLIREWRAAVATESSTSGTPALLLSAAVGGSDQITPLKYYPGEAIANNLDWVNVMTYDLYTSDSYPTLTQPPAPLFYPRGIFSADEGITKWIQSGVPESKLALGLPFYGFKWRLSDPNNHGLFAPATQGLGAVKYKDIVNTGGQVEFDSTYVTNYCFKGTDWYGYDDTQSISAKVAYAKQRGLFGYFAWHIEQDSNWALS")
-0.839
